Molecular target: Catechol O-methyltransferase (Homo sapiens)
Assay: Confirmatory Screen for Target Class Profiling of Small Molecule Inhibitors of Methyltransferases (AID 1745852)
Details: MTase-Glo luminescence, SAH detection, recombinant enzyme; measured here: COMT max response; stronger effect = lower value
# activity annotations

Recorded activity, per entry:
- compound: "Cc1ccsc1CCNC(=O)Cn1c(=O)oc2cc(S(=O)(=O)N3CCCC3)ccc21"
  activity: "-8.14%"
- compound: "CCNc1nccc(N2CCC(CC(=O)NCC(C)C)CC2)n1"
  activity: "-2.4%"
- compound: "CCOc1cc(CNc2ccc(C(=O)O)cc2)ccc1OCc1ccccc1"
  activity: "-41.3%"
- compound: "COc1cccc(NC(=O)Cn2c(=O)oc3cc(S(=O)(=O)N4CCCCC4C)ccc32)c1 (stereo not given)"
  activity: "0.845%"
- compound: "COc1ccc(-c2nnn3c2nc(N2CCOCC2)c2ccccc23)cc1"
  activity: "-38.9%"
- compound: "COc1ccc2c(c1)C(CN1CCN(c3ccc4oc(C(=O)O)cc4c3Cl)CC1)=CC(C)(C)CO2"
  activity: "-4.38%"

Return reported activity. Input compound: O=C(NCc1ccccc1)c1ccc2c(=O)nc3c(-c4ccccc4F)n[nH]n3c2c1
-13.3%

Return reported activity. Input compound: COc1ccc(CCNC(=O)c2ccc3c(=O)[nH]c4c(C(=O)NC5CCCC5)sc(=S)n4c3c2)cc1OC
-35.3%

Return reported activity. Input compound: CCN(CC)CCNC(=O)CCc1nnc2n(Cc3ccc(C)cc3)c(=O)c3ccccc3n12
-5.02%

Return reported activity. Input compound: CCCC1c2cccn2CCN1C(=O)Nc1ccc(Br)cc1 (stereo not given)
-7.6%
